- Tested on: Cyanidioschyzon merolae
- TEST PROTOCOL: Binding affinity to Cyanidioschyzon merolae ABCB1 assessed as Km
Below, each entry is listed alongside its reported Km.
Answer in µM, number only, no unit symbol.

The examples below pair each entry with its known result.
In [3]: df
Out[3]:
                           molecular_string  measured
0  COc1cccc(COC(=O)c2ccccc2C2=c3cc4c(cc3Oc3cc5c(cc32)CCCN5)=NCCC4)c1      0.58
1  O=C(OCc1cccc([N+](=O)[O-])c1)c1ccccc1C1=c2cc3c(cc2Oc2cc4c(cc21)CCCN4)=NCCC3      0.55

What measured Km goes with CCCC/N=c1/cc2oc3cc(NCCCC)c(C)cc3c(-c3ccccc3C(=O)OCCCC)c-2cc1C ?
3.2

Cited source for all entries: ChEMBL document CHEMBL5357076
